test: Lipophilicity, log P of the compound by shake-flask method; type: physicochemical; settings: octanol/water
Kindly apply the following: condition met if logP is less than 4, condition not met in every other case.

// query Lab log: compare recorded logP with 4; is it strictly lower for CC[C@H](C)C(=O)N1CCC(NC(=O)Nc2ccc(C(F)(F)F)cc2)CC1 ?
// result condition met

// query Lab log: compare recorded logP with 4; is it strictly lower for CCS(=O)(=O)N1CCC(NC(=O)Nc2ccc(C(F)(F)F)cc2)CC1 ?
// result condition met

// query Lab log: compare recorded logP with 4; is it strictly lower for CC(=O)N1CCC(NC(=O)Nc2ccc(C(F)(F)F)cc2)CC1 ?
// result condition met

// query Lab log: compare recorded logP with 4; is it strictly lower for CCCCS(=O)(=O)N1CCC(NC(=O)Nc2ccc(OC(F)(F)F)cc2)CC1 ?
// result condition not met

// query Lab log: compare recorded logP with 4; is it strictly lower for O=C(Nc1ccc(C(F)(F)F)cc1)NC1CCN(C(=O)C2CC2)CC1 ?
// result condition met

// query Lab log: compare recorded logP with 4; is it strictly lower for CC(C)CC(=O)N1CCC(NC(=O)Nc2ccc(C(F)(F)F)cc2)CC1 ?
// result condition met

// query Lab log: compare recorded logP with 4; is it strictly lower for CCC(C)C(=O)N1CCC(NC(=O)Nc2ccc(C(C)(C)C)cc2)CC1 (stereo not given) ?
// result condition not met

// query Lab log: compare recorded logP with 4; is it strictly lower for CCC(C)C(=O)N1CCC(NC(=O)Nc2ccc(C(F)(F)F)cc2)CC1 (stereo not given) ?
// result condition met

// query Lab log: compare recorded logP with 4; is it strictly lower for CS(=O)(=O)N1CCC(NC(=O)Nc2ccc(C(F)(F)F)cc2)CC1 ?
// result condition met

// query Lab log: compare recorded logP with 4; is it strictly lower for CCCS(=O)(=O)N1CCC(NC(=O)Nc2ccc(C(F)(F)F)cc2)CC1 ?
// result condition met

// query Lab log: compare recorded logP with 4; is it strictly lower for CC(C)S(=O)(=O)N1CCC(NC(=O)Nc2ccc(C(F)(F)F)cc2)CC1 ?
// result condition met

// query Lab log: compare recorded logP with 4; is it strictly lower for CCC(C)C(=O)N1CCC(NC(=O)Nc2ccc(C(C)C)cc2)CC1 (stereo not given) ?
// result condition not met

// query Lab log: compare recorded logP with 4; is it strictly lower for O=C(Nc1ccc(C(F)(F)F)cc1)NC1CCN(S(=O)(=O)CC(F)(F)F)CC1 ?
// result condition met

// query Lab log: compare recorded logP with 4; is it strictly lower for CCC(C)C(=O)N1CCC(NC(=O)Nc2ccc(C(F)(C(F)(F)F)C(F)(F)F)cc2)CC1 (stereo not given) ?
// result condition not met

// query Lab log: compare recorded logP with 4; is it strictly lower for O=C(Nc1ccc(C(F)(F)F)cc1)NC1CCN(C(=O)CCC(F)(F)F)CC1 ?
// result condition met

// query Lab log: compare recorded logP with 4; is it strictly lower for O=C(Nc1ccc(C(F)(C(F)(F)F)C(F)(F)F)cc1)NC1CCN(C(=O)CC(F)(F)F)CC1 ?
// result condition not met

* * *

assay: Lipophilicity, log P of the compound by shake-flask method; type: physicochemical; details: octanol/water
metric: logP
Keep the answer to the number alone.

// query Given CC[C@H](C)C(=O)N1CCC(NC(=O)Nc2ccc(OC(F)(F)F)cc2)CC1 , state its recorded logP.
// result 3.97

// query Given O=C(Nc1ccc(C(F)(F)F)cc1)NC1CCN(C(=O)CC(F)(F)F)CC1 , state its recorded logP.
// result 3.99

// query Given CCCCS(=O)(=O)N1CCC(NC(=O)Nc2ccc(C(F)(F)F)cc2)CC1 , state its recorded logP.
// result 3.95

// query Given CCC(C)C(=O)N1CCC(NC(=O)Nc2ccc(OC(F)(F)F)cc2)CC1 (centres undefined) , state its recorded logP.
// result 3.98
